- ASSAYED TARGET: Insulin receptor (Homo sapiens, UniProt P06213)
- Sequence (P06213 28-758 limits assumed): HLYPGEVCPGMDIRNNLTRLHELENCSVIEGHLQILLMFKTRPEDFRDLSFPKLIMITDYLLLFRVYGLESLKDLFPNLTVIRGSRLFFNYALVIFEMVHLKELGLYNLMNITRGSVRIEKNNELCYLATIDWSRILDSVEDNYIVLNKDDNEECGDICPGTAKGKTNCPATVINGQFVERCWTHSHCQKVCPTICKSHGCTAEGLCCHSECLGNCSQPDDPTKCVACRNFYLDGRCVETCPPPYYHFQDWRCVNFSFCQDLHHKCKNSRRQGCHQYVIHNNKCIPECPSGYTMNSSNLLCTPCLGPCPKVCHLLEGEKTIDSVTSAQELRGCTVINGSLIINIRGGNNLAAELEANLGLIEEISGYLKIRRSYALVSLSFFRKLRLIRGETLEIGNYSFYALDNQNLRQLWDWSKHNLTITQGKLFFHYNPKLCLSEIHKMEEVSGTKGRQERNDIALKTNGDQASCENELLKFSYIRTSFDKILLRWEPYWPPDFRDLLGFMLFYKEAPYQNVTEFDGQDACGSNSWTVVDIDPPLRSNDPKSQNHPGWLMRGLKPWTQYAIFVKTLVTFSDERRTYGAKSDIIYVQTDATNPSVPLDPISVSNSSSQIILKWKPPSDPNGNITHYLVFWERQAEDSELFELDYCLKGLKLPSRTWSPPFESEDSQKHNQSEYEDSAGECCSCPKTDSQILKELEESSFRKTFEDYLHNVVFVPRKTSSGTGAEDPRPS
- Sequence (P06213 763-1382 limits assumed): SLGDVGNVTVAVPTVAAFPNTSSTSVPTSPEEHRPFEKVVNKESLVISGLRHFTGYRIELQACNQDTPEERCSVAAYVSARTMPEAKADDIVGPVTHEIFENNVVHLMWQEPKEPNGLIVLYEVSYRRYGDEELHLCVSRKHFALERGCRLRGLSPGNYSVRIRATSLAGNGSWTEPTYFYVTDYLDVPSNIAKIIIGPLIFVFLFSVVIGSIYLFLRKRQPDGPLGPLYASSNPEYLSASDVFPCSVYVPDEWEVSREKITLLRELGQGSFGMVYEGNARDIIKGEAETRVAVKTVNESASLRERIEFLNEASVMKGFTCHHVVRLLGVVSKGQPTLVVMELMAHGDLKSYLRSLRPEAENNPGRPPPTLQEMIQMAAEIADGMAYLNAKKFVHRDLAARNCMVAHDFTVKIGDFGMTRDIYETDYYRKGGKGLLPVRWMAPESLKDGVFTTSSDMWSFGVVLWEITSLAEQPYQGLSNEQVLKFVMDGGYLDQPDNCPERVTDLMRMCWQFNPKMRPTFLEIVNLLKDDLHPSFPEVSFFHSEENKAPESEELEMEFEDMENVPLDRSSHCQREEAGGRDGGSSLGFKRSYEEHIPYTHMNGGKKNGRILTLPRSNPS
- ASSAY SUMMARY: Inhibition of INSR (unknown origin)
pIC50: −log10 of the molar value.
EXPERIMENTAL READOUT: pIC50

Notebook: COC[C@@H](C)Nc1cc(NC(=O)N2CCCc3cc(CN4CCCCOC4=O)c(C=O)nc32)ncc1C#N , pIC50 read as < 5.00

###

EXPERIMENTAL READOUT: IC50

The measured IC50 that COC[C@@H](C)Nc1cc(NC(=O)N2CCCc3cc(CN4CCCCOC4=O)c(C=O)nc32)ncc1C#N showed for Vascular endothelial growth factor receptor 1 (Homo sapiens, UniProt P17948) is > 10 µM
